assay.protocol: Apparent permeability across Caco-2 cells
Assay type: ADME, cell-based
run.parameters: human
test.readout: Papp (×10⁻⁶ cm/s)
Answers are plain numbers, in ×10⁻⁶ cm/s.

Answered examples (4):
1) COc1ccc(-n2nc(C(N)=O)c3c2C(=O)N(c2ccc(-c4ccccc4CN(C)C)cc2)CC3)cc1 | 2.3
2) COc1ccc(-n2nc(C(N)=O)c3c2C(=O)N(c2ccc(-c4ccccc4CN(CCO)CCO)cc2)CC3)cc1 | 0.9
3) COc1ccc(-n2nc(C(N)=O)c3c2C(=O)N(c2ccc(-c4ccccc4CN)cc2)CC3)cc1 | 1.2
4) COc1ccc(-n2nc(C(N)=O)c3c2C(=O)N(c2ccc(N(C)C(C)=O)cc2)CC3)cc1 | 2.5

Can you give me Papp for all of these, one by one?
1. COc1ccc(-n2nc(C(N)=O)c3c2C(=O)N(c2ccc(-c4ccccc4CN4CCC(O)CC4)cc2)CC3)cc1
2. CNCc1ccccc1-c1ccc(N2CCc3c(C(N)=O)nn(-c4ccc(OC)cc4)c3C2=O)cc1
3. COc1ccc(-n2nc(C(N)=O)c3c2C(=O)N(c2ccc(-c4ccccc4CN4CC[C@@H](O)C4)cc2)CC3)cc1
4. COc1ccc(-n2nc(Cn3cnnn3)c3c2C(=O)N(c2ccc(-c4ccccc4CN4CC[C@@H](O)C4)cc2)CC3)cc1

Response:
4.9
1.7
2.3
0.9

###

target.under.test: Coagulation factor X (Homo sapiens)
Sequence (P00742 41-179 limits assumed): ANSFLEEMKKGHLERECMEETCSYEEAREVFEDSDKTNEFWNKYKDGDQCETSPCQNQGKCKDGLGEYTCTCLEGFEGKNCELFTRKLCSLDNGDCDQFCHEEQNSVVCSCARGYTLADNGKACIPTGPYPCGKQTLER
Sequence (P00742 235-488 limits assumed): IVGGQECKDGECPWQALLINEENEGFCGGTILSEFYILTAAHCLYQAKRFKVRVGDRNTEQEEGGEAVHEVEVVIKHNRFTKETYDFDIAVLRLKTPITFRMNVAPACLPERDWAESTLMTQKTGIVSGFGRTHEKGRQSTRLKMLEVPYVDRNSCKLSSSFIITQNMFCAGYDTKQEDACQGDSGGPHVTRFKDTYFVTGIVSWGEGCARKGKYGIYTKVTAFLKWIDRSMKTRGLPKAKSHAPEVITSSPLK
assay.protocol: Binding affinity to human F10a
test.readout: pKi
Numbers only, as −log10 of the molar value.

Answered examples (3):
1) COc1ccc(-n2nc(N(C)C)c3c2C(=O)N(c2ccc(-c4ccccc4CN4CC[C@@H](O)C4)cc2)CC3)cc1 | 9.51
2) COc1ccc(-n2nc(Cn3ncnn3)c3c2C(=O)N(c2ccc(-c4ccccc4CN4CC[C@@H](O)C4)cc2)CC3)cc1 | 8.96
3) COc1ccc(-n2nc(C(F)(F)F)c3c2C(=O)N(c2ccc(N4CCCCC4=O)cc2)CC3)cc1 | 9.64

Switching to the query record.
For record `COc1ccc(-n2nc(C(N)=O)c3c2C(=O)N(c2ccc(-c4ccccc4CN(C)C)cc2)CC3)cc1` the listed pKi is 9.62

###

assay.protocol: Apparent permeability across Caco-2 cells
Assay type: ADME, cell-based
run.parameters: human
Record form. Attribute: Papp. Fill in for each entry.
Numbers only, in ×10⁻⁶ cm/s.

1. COc1ccc(-n2nc(Cn3ccnn3)c3c2C(=O)N(c2ccc(-c4ccccc4CN4CC[C@@H](O)C4)cc2)CC3)cc1 | 1.6
2. CCN(CC)Cc1ccccc1-c1ccc(N2CCc3c(C(N)=O)nn(-c4ccc(OC)cc4)c3C2=O)cc1 | 2.3

Switching to the query record.
For record `COc1ccc(-n2nc(C(N)=O)c3c2C(=O)N(c2ccc(-c4ccccc4CN4CCCC4)cc2)CC3)cc1` the listed Papp is 3.5

###

Record form. Attribute: clearance. Fill in for each entry.
assay.protocol: Clearance in dog at 0.4 mg/kg, iv and 0.2 mg/kg, po
Type: ADME, organism-based, Canis lupus familiaris
run.parameters: in vivo
Returns: string containing the number followed by the unit.

Answered examples (6):
1. COc1ccc(-n2nc(C(N)=O)c3c2C(=O)N(c2ccc(-c4ccccc4CN(CCO)CCO)cc2)CC3)cc1 | 8.33 mL/min/kg
2. COc1ccc(-n2nc(C(N)=O)c3c2C(=O)N(c2ccc(-c4ccccc4CN4CC[C@@H](O)C4)cc2)CC3)cc1 | 5.33 mL/min/kg
3. COc1ccc(-n2nc(C(N)=O)c3c2C(=O)N(c2ccc(N4CCCCC4=O)cc2)CC3)cc1 | 0.333 mL/min/kg
4. CCN(CC)Cc1ccccc1-c1ccc(N2CCc3c(C(N)=O)nn(-c4ccc(OC)cc4)c3C2=O)cc1 | 40 mL/min/kg
5. COc1ccc(-n2nc(Cn3ccnn3)c3c2C(=O)N(c2ccc(-c4ccccc4CN4CC[C@@H](O)C4)cc2)CC3)cc1 | 41.2 mL/min/kg
6. COc1ccc(-n2nc(Cn3cnnn3)c3c2C(=O)N(c2ccc(-c4ccccc4CN4CC[C@@H](O)C4)cc2)CC3)cc1 | 43 mL/min/kg

Can you give me clearance for all of these, one by one?
1. CNCc1ccccc1-c1ccc(N2CCc3c(C(N)=O)nn(-c4ccc(OC)cc4)c3C2=O)cc1
2. Nc1noc2ccc(-n3nc(C(F)(F)F)c4c3C(=O)N(c3ccc(-c5ccccc5CN5CC[C@@H](O)C5)cc3)CC4)cc12
3. COc1ccc(-n2nc(C(N)=O)c3c2C(=O)N(c2ccc(N(C)C(C)=O)cc2)CC3)cc1
4. COc1ccc(-n2nc(C(N)=O)c3c2C(=O)N(c2ccc(-c4ccccc4CN4CCC(O)CC4)cc2)CC3)cc1
5. COc1ccc(-n2nc(C(N)=O)c3c2C(=O)N(c2ccc(-c4ccccc4CN(C)C)cc2)CC3)cc1

Response:
21.7 mL/min/kg
5.83 mL/min/kg
46.7 mL/min/kg
1.67 mL/min/kg
33.3 mL/min/kg

For record `COc1ccc(-n2nc(C(N)=O)c3c2C(=O)N(c2ccc(-c4ccccc4CN4CCCC4)cc2)CC3)cc1` the listed clearance is 25 mL/min/kg

###

Species: Oryctolagus cuniculus
assay.protocol: Inhibition of thrombus formation in rabbit arteriovenous shunt thrombosis model
Assay type: functional, organism-based
// classify: if (IC50 < 200 nM) satisfied else not satisfied

Example cases with answers are listed next.
1) COc1ccc(-n2nc(C(N)=O)c3c2C(=O)N(c2ccc(-c4ccccc4CN(C)C)cc2)CC3)cc1 | satisfied
2) CNCc1ccccc1-c1ccc(N2CCc3c(C(N)=O)nn(-c4ccc(OC)cc4)c3C2=O)cc1 | not satisfied
3) COc1ccc(-n2nc(C(N)=O)c3c2C(=O)N(c2ccc(-c4ccccc4CN4CC[C@@H](O)C4)cc2)CC3)cc1 | satisfied

Prompt: A record lists `Nc1noc2ccc(-n3nc(C(F)(F)F)c4c3C(=O)N(c3ccc(-c5ccccc5CN5CC[C@@H](O)C5)cc3)CC4)cc12` . Is its IC50 below 200 nM?
Response: satisfied

Prompt: A record lists COc1ccc(-n2nc(C(N)=O)c3c2C(=O)N(c2ccc(N4CCCCC4=O)cc2)CC3)cc1 [APIXABAN] . Is its IC50 below 200 nM?
Response: not satisfied

Prompt: A record lists `COc1ccc(-n2nc(C(N)=O)c3c2C(=O)N(c2ccc(-c4ccccc4CN4CCC(O)CC4)cc2)CC3)cc1` . Is its IC50 below 200 nM?
Response: satisfied

###

assay.protocol: Aqueos solubility in saline
Assay type: ADME
test.readout: solubility (µg/mL)
Numbers only, in µg/mL.

For record COc1ccc(-n2nc(C(N)=O)c3c2C(=O)N(c2ccc(N4CCCCC4=O)cc2)CC3)cc1 [APIXABAN] the listed solubility is 50

###

For reference, pKi measured on Prothrombin (Homo sapiens, UniProt P00734):
Give bare numbers, as −log10 of the molar value.

1. COc1ccc(-n2nc(Cn3ccnn3)c3c2C(=O)N(c2ccc(-c4ccccc4CN4CC[C@@H](O)C4)cc2)CC3)cc1 | 4.92
2. COc1ccc(-n2nc(Cn3ncnn3)c3c2C(=O)N(c2ccc(-c4ccccc4CN4CC[C@@H](O)C4)cc2)CC3)cc1 | 6.00
3. CNc1nn(-c2ccc(OC)cc2)c2c1CCN(c1ccc(-c3ccccc3CN3CC[C@@H](O)C3)cc1)C2=O | 5.32
4. CCOC(=O)c1nn(-c2ccc(OC)cc2)c2c1CCN(c1ccc(-c3ccccc3CN3CC[C@@H](O)C3)cc1)C2=O | 6.01

Can you give me pKi for all of these, one by one?
1. COc1ccc(-n2nc(C(F)(F)F)c3c2C(=O)N(c2ccc(N4CCCCCC4=O)cc2)CC3)cc1
2. CNC(=O)c1nn(-c2ccc(OC)cc2)c2c1CCN(c1ccc(-c3ccccc3CN3CC[C@@H](O)C3)cc1)C2=O
3. COc1ccc(-n2nc(N(C)C(=O)OC(C)(C)C)c3c2C(=O)N(c2ccc(-c4ccccc4CN4CC[C@@H](O)C4)cc2)CC3)cc1

Response:
5.48
5.15
6.02

###

Record form. Attribute: bioavailability. Fill in for each entry.
assay.protocol: Oral bioavailability in dog at 0.2 mg/kg, po
Assay type: ADME, organism-based, Canis lupus familiaris
run.parameters: in vivo
One number for each entry, in %.

Answered examples (3):
1. CCN(CC)Cc1ccccc1-c1ccc(N2CCc3c(C(N)=O)nn(-c4ccc(OC)cc4)c3C2=O)cc1 | 20
2. CNCc1ccccc1-c1ccc(N2CCc3c(C(N)=O)nn(-c4ccc(OC)cc4)c3C2=O)cc1 | 56
3. COc1ccc(-n2nc(C(N)=O)c3c2C(=O)N(c2ccc(N(C)C(C)=O)cc2)CC3)cc1 | 56

Can you give me bioavailability for all of these, one by one?
1. COc1ccc(-n2nc(C(N)=O)c3c2C(=O)N(c2ccc(-c4ccccc4CN(C)C)cc2)CC3)cc1
2. COc1ccc(-n2nc(C(N)=O)c3c2C(=O)N(c2ccc(-c4ccccc4CN4CC[C@@H](O)C4)cc2)CC3)cc1

Response:
56
100

All figures here come from ChEMBL document CHEMBL1137566.
